- assayProtocol: Pharmacokinetic study in dogs
- Type: in vivo, male Beagle dogs
- condition: male, Beagle, dog, plasma, iv, 3 mg/kg, Dog, i.v, 3 mg/kg; read-out: t1/2 (converted)
assayReadout: half-life (min)
Provide the reading as a plain figure in min.

# smilesStr, dataValue
rows = [
    ("Cc1cccc(CCNc2nc3c(C)c(C)nn3c(N)c2C#N)n1", 42),
]

Let us move to another entry and its half-life.
Respond only with half-life recorded for CCc1c(C)nn2c(N)c(C#N)c(NCCc3ccn(C4(CO)CC4)n3)nc12 24

* * *

- assayProtocol: Pharmacokinetic study in rats
- Assay type: in vivo, male Sprague-Dawley (SD) rats
- condition: male, Sprague-Dawley, plasma, iv; Rat, i.v, 3 mg/kg; read-out: Vss
assayReadout: Vd (L/kg)
State the answer as a number, implicitly in L/kg.

Return Vd for the following compound: Cc1cccc(CCNc2nc3c(C)c(C)nn3c(N)c2C#N)n1 1.4

* * *

- targetOfAssay: A2A receptor (Homo sapiens, UniProt P29274)
- Construct: host or cells: HEK-293
- Sequence (P29274 whole entry): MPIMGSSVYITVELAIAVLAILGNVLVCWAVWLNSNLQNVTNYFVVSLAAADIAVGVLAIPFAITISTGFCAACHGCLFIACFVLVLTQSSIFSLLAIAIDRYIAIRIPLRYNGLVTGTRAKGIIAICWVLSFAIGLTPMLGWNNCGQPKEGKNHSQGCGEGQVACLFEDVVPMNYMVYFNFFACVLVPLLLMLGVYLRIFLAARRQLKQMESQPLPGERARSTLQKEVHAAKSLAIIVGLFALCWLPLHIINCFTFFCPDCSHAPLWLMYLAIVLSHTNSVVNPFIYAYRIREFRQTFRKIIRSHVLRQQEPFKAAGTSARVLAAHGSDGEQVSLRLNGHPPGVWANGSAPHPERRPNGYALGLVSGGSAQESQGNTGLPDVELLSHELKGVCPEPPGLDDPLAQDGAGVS
- assayProtocol: A2aR antagonism IC50, cAMP TR-FRET in HEK-293 cells, high concentration of adenosine (30 μM);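 note: compounds added 10 min before adenosine, then 30 min stimulation at room temperature in buffer with 100 µM rolipram and 30 µM EHNA, signal read 1 h after detection reagents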
- Assay type: cell-based
- condition: HEK-293 cells expressing A2A receptor; agonist adenosine 30 μM; 2% HSA; inhibition of cAMP; read-out: A2AR IC50 (nM) (@30 μM Adenosine)
assayReadout: IC50

Consider the worked cases shown below.
# compound, dataValue
measured = [
    ("Cc1nn2c(N)c(C#N)c(NCCc3ccn(C4(CNC(=O)CCO)CC4)n3)nc2c1Cl", "69 nM"),
    ("Cc1nn2c(N)c(C#N)c(NCCc3ccn(C4CCCC4CN)n3)nc2c1Cl (stereo not drawn)", "78 nM"),
    ("Cc1nn2c(N)c(C#N)c(NCCc3ccn(C4(CO)CC4)n3)nc2c1Cl", "78 nM"),
    ("CCc1c(C)nn2c(N)c(C#N)c(NCCc3cccc(CCO)n3)nc12", "165 nM"),
]

Tell me its IC50 given CCc1c(C)nn2c(N)c(C#N)c(NCCc3cc(C)n(C4(CO)CC4)n3)nc12 as the entry. 50 nM

Quote IC50 reported for CCc1c(C)nn2c(N)c(C#N)c(NCCc3cccn(CC[S+](C)[O-])c3=O)nc12 (single isomer, unassigned; (+)) [Example 144a] please. 327 nM

Hello, please tell me recorded IC50 for this one: CCc1c(C)nn2c(N)c(C#N)c(NCCc3cccn(CC4CC(O)C4)c3=O)nc12 (stereo not drawn) 368 nM

Quick one: give measured IC50 for Cc1nn2c(N)c(C#N)c(NCCc3ccn(C4(CCO)CC4)n3)nc2c1Cl 84 nM

* * *

As shown below, each of these compounds has a reported IC50 value.
- targetOfAssay: A2B receptor (Homo sapiens)
- assayProtocol: A2bR antagonism IC50, cAMP TR-FRET in HEK-293 cells, high concentration of adenosine (30 μM)
- condition: A2BR IC50 (nM) (@30 μM Adenosine), HEK-293 cells expressing A2B receptor; agonist adenosine 30 μM; 2% HSA; inhibition of cAMP
Kindly answer with a numeric value in nM, unit omitted.

Before answering, review these 3 worked examples.
# compound, IC50 [nM]
measured = [
    ("CCc1c(C)nn2c(N)c(C#N)c(NCCc3cccn(CC4CC(O)C4)c3=O)nc12 (centres unmarked) [Example 128]", 1110),
    ("Cc1nn2c(N)c(C#N)c(NCCc3cccc(CO)n3)nc2c1Cl [Example 33]", 1420),
    ("Cc1nn2c(N)c(C#N)c(NCCc3cc(C)n(C4(CO)CC4)n3)nc2c1C [Example 86]", 2550),
]

Please tell me the measured IC50 for CCc1c(C)nn2c(N)c(C#N)c(NCCc3ccn(C(C)(C)CO)n3)nc12 [Example 32] ; system: A2B receptor (Homo sapiens). 2130

* * *

- targetOfAssay: A2B receptor (Homo sapiens, UniProt P29275)
- Sequence (P29275 whole entry): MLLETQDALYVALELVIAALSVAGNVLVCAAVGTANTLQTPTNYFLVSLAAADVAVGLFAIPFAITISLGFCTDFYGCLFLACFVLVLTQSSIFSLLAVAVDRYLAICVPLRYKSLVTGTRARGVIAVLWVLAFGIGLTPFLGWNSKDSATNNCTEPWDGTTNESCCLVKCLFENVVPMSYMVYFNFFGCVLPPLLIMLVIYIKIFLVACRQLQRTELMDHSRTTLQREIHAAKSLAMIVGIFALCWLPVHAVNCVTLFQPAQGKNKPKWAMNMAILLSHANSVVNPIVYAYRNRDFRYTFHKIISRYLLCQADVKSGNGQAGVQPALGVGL
- assayProtocol: A2bR antagonism IC50, cAMP TR-FRET (Lance Ultra) in HEK-293 cells, NECA as agonist
- Assay type: cell-based
- Set-up: host or cells: HEK-293
- condition: HEK-293 cells expressing A2B receptor; agonist NECA 30 nM (EC90); inhibition of cAMP
Known IC50 of a selection of compounds
State just the number; it will be interpreted in nM.

Note IC50 for the compound shown: CCc1c(C(F)F)nn2c(N)c(C#N)c(NCCc3cccc(CO)n3)nc12 11

For the compound Cc1nn2c(N)c(C#N)c(NCc3cccc(C(C)(C)O)n3)nc2c1C , give its reported IC50. 1130

Provide only the value of recorded IC50 for CCc1c(C)nn2c(N)c(C#N)c(NCCc3ccn(C4(CO)CC4)n3)nc12 0.94

* * *

- targetOfAssay: hERG potassium channel (Homo sapiens, UniProt Q12809)
- Construct: a Chinese Hamster Ovary cell line stably expressing the full-length hERG potassium channel
- Sequence (Q12809 whole entry): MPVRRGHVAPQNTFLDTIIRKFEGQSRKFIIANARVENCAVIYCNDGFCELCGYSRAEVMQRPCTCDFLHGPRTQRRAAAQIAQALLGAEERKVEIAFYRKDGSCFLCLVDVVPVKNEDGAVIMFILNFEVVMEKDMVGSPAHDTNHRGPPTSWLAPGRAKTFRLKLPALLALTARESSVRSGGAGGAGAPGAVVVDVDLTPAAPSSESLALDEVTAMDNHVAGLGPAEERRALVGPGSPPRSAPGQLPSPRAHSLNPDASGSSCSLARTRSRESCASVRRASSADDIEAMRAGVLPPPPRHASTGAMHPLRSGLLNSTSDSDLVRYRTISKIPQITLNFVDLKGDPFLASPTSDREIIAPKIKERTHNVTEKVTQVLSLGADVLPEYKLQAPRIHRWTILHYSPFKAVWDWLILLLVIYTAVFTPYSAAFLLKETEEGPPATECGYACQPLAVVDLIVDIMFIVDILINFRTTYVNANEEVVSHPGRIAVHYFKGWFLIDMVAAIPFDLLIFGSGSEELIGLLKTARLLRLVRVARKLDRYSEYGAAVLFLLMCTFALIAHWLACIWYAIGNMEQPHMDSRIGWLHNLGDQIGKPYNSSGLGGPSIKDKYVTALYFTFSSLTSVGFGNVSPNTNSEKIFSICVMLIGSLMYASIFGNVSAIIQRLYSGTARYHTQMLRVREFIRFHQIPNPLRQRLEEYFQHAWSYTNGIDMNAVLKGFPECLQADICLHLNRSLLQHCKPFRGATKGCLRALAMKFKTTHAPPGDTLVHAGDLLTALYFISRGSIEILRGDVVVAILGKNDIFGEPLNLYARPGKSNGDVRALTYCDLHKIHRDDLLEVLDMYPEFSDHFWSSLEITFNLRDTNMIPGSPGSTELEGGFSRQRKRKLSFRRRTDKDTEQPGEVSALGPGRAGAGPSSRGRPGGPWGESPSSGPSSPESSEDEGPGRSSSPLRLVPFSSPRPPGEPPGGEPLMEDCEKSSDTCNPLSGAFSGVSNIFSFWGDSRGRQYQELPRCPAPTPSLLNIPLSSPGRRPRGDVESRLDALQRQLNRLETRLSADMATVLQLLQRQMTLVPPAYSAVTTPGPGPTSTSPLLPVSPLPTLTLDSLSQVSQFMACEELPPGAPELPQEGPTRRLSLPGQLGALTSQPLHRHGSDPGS
- assayProtocol: hERG inhibition assay, Qpatch HTX automated electrophysiology
- condition: CHO cell line stably expressing hERG; whole-cell patch clamp; room temperature
- Protocol: The representative compounds of formula I were tested for inhibition of the human ether a go-go related gene (hERG) K+ channel using Qpatch HTX automated electrophysiology. […] Compounds were solubilised to 100 mM in DMSO before dilution in HBPS to 100 μM. […] Single cell ionic currents were measured in whole-cell patch clamp configuration at room temperature (21-23° C.) using the Qpatch HTX platform (Sophion). […]
# key: entry, value: IC50

Examples with answers:
# molecule, targetOfAssay, IC50
data = [
    ("CCc1c(C)nn2c(N)c(C#N)c(NCCc3ccn(C4(CO)CC4)n3)nc12 [Example 39]", "hERG potassium channel (Homo sapiens, UniProt Q12809)", "> 100 µM"),
    ("Cc1cccc(CCNc2nc3c(C)c(C)nn3c(N)c2C#N)n1 [Example 13]", "hERG potassium channel (Homo sapiens, UniProt Q12809)", "> 100 µM"),
]

Provide IC50 value for the following molecule: CCc1c(C)nn2c(N)c(C#N)c(NCCc3ccn(C4CCC4CO)n3)nc12 (single isomer, unassigned; (-)) [Example 79] > 100 µM

Identify measured IC50 corresponding to CCc1c(C)nn2c(N)c(C#N)c(NCCc3cccc(CCCO)n3)nc12 [Example 155] > 100 µM

Indicate its recorded IC50; the molecule in question is CCc1c(C)nn2c(N)c(C#N)c(NCCc3ccn(C4COCC4CO)n3)nc12 (single isomer, unassigned; (-)) [Example 122b] > 100 µM

* * *

Recorded IC50 for the following compounds
- targetOfAssay: A2B receptor (Homo sapiens)
- assayProtocol: A2bR antagonism IC50, cAMP TR-FRET in HEK-293 cells, high concentration of adenosine (30 μM)
- condition: A2BR IC50 (nM) (@30 μM Adenosine), HEK-293 cells expressing A2B receptor; agonist adenosine 30 μM; 2% HSA; inhibition of cAMP
Return type: number; implicit unit nM.

# count of solved cases: 4
# compound, IC50 (nM)
rows = [
    ("CCCc1c(C)nn2c(N)c(C#N)c(NCCc3ccn(C4(CO)CC4)n3)nc12", 3350),
    ("Cc1cccc(CCNc2nc3c(Cl)c(C)nn3c(N)c2C#N)n1", 3410),
    ("CCc1c(C)nn2c(N)c(C#N)c(NCCc3ccn(C4CCC4CN)n3)nc12 (stereo not drawn)", 723),
    ("CCc1c(C)nn2c(N)c(C#N)c(NCCc3cccn(C)c3=O)nc12", 1300),
]

Recall the reported IC50 of CCc1c(C)nn2c(N)c(C#N)c(NCCc3ccn(CC4(CO)CC4)n3)nc12 on A2B receptor (Homo sapiens) and write it down. 2800

Report measured IC50 on A2B receptor (Homo sapiens); entry: Cc1nn2c(N)c(C#N)c(NCCc3ccn(C4CCC4CNCCO)n3)nc2c1Cl (stereo not drawn) 3060

// fetch IC50 for Cc1nn2c(N)c(C#N)c(NCCc3cccc(C4(CO)CC4)n3)nc2c1C ; system: A2B receptor (Homo sapiens) 4260

* * *

- assayProtocol: Pharmacokinetic study in rats
- Format: in vivo, male Sprague-Dawley (SD) rats
- condition: male, Sprague-Dawley, plasma, iv; Rat, i.v, 15 mg/kg; read-out: Vss
assayReadout: Vd

Tell us which Vd value is on record for CCc1c(C)nn2c(N)c(C#N)c(NCCc3ccn(C4(CO)CC4)n3)nc12 2.4 L/kg

* * *

- targetOfAssay: A2B receptor (Homo sapiens, UniProt P29275)
- assayProtocol: A2bR antagonism IC50, cAMP TR-FRET in HEK-293 cells, high concentration of adenosine (30 μM);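 note: compounds preincubated 10 min with cells, then adenosine stimulation 30 min at room temperature in buffer with Rolipram 100 µM and EHNA 30 µM, TR-FRET read after 1 h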
- condition: A2BR IC50 (nM) (@30 μM Adenosine), HEK-293 cells expressing A2B receptor; agonist adenosine 30 μM; 2% HSA; inhibition of cAMP
assayReadout: log10 of IC50 (log10 of the value in nM)
Friendly reminder: values = log10 of IC50, unit nM.

The cases that follow already have their log10 of IC50 on record.
# compound, dataValue
records = [
    ("CCc1c(C)nn2c(N)c(C#N)c(NCCc3ccn(CCC[S+](C)[O-])n3)nc12 (single isomer, unassigned; (+)) [Example 162b]", 3.44),
    ("Cc1cccc(CCNc2nc3c(C)c(C)nn3c(N)c2C#N)n1 [Example 13]", 3.37),
]

Look up and report measured log10 of IC50 for this entry: CCc1c(C)nn2c(N)c(C#N)c(NCCc3cccn(CCCO)c3=O)nc12 [Example 113] 3.02

Check the records and state log10 of IC50 for Cc1nn2c(N)c(C#N)c(NCCc3ccn(C4CCC4CO)n3)nc2c1C (racemic) [Example 103] 3.41

Identify measured log10 of IC50 associated with Cc1nn2c(N)c(C#N)c(NCCc3ccn(C4CCC4CO)n3)nc2c1CC1CC1 (centres unmarked) [Example 116] 3.32

Look up and state reported log10 of IC50 for Cc1nn2c(N)c(C#N)c(NCCc3ccn(CC4CC(O)C4)n3)nc2c1Cl (single isomer, unassigned; (+)) [Example 83] 3.42

Let me know recorded log10 of IC50 for Cc1nn2c(N)c(C#N)c(NCCc3ccn(CC4CC(O)C4)n3)nc2c1Cl (racemic) [Example 82] , thanks. 3.37

Consider the compound CCc1cccc(CCNc2nc3c(Cl)c(C)nn3c(N)c2C#N)n1 [Example 120] . State its measured log10 of IC50. 3.94

Supply recorded log10 of IC50 for CCc1c(C)nn2c(N)c(C#N)c(NCCc3ccn(C4CCC4CNCC(N)=O)n3)nc12 (centres unmarked) [Example 134] here. 3.40

Supply measured log10 of IC50 of Cc1nn2c(N)c(C#N)c(NCCc3ccn(C4CCCC4CO)n3)nc2c1Cl (centres unmarked) [Example 114] in your reply. 3.64

Determine its reported log10 of IC50: CCc1c(C)nn2c(N)c(C#N)c(NCCc3ccn(C4(CNCCO)CC4)n3)nc12 [Example 106] 3.64

// fetch log10 of IC50 given entry CCc1c(C)nn2c(N)c(C#N)c(NCCc3cccn(CC[S+](C)[O-])c3=O)nc12 (racemic) [Example 143] 3.13

Read off the recorded log10 of IC50 for CCc1c(C)nn2c(N)c(C#N)c(NCCc3ccn(CCCO)n3)nc12 [Example 111] 3.38

Read off the recorded log10 of IC50 for CCc1c(C)nn2c(N)c(C#N)c(NCCc3ccn(C4(CNCC[S+](C)[O-])CC4)n3)nc12 (single isomer, unassigned; (+)) [Example 163b] 4.09

Entry CCc1c(C)nn2c(N)c(C#N)c(NCCc3cccn(CCN)c3=O)nc12 [Example 126] needs its log10 of IC50 filled in; supply it. 3.55

Give the reported log10 of IC50 for this compound. CCc1c(C)nn2c(N)c(C#N)c(NCCc3ccn(CCCSC)n3)nc12 [Example 161] 3.60

Indicate the recorded log10 of IC50 value for this compound: CCc1c(C)nn2c(N)c(C#N)c(NCCc3cccc(CCO)n3)nc12 [Example 139] 2.68
